target: recombinant human NF-kappaB-inducing kinase (NIK/MAP3K14) (Homo sapiens, UniProt Q99558); experiment: Inhibition of auto-phosphorylation of recombinant human NIK/MAP3K14 activity (AlphaScreen), Biological Assay A; format: biochemical; details: averaged values over all measurements on all batches
Sequence (Q99558 whole entry): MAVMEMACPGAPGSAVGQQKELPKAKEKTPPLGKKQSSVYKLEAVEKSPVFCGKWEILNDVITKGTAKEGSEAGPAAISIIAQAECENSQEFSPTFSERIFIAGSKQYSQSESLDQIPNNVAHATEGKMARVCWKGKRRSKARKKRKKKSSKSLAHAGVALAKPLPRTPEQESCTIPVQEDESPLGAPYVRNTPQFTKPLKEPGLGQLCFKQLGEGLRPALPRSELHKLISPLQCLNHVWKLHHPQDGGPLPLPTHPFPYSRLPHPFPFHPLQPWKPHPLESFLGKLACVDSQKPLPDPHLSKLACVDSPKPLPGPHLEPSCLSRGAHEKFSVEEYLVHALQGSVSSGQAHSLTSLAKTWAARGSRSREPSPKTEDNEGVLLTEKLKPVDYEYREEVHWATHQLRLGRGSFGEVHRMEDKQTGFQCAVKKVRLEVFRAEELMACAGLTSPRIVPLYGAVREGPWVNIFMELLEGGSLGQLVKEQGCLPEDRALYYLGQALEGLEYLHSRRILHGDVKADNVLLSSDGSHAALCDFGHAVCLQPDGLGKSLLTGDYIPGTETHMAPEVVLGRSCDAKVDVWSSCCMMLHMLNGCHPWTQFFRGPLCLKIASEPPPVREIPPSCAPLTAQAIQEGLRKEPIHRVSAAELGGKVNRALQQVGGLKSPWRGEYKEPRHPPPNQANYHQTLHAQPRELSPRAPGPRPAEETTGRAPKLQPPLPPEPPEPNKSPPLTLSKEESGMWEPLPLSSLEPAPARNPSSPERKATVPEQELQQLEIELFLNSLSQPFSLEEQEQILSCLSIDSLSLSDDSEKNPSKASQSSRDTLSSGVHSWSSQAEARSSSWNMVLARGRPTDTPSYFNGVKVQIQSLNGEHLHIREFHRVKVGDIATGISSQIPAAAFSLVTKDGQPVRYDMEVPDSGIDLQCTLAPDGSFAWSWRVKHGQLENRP
VALUE_KIND: IC50 (nM)

Guide cases for IC50, answers given:
INSERT INTO measurements (compound, system_name, value_kind, numeric_result) VALUES
  ('COc1cc(C(=O)N2CCNC(C#N)C2)c(Cl)cc1Nc1nccc(-c2cc(C#N)c3c(c2)C(C)(C)CN3)n1 (stereo not shown)', 'recombinant human NF-kappaB-inducing kinase (NIK/MAP3K14) (Homo sapiens, UniProt Q99558)', 'IC50', 8.5),
  ('Cc1c(CN2CC(C)OC(C)C2)cc(C#N)cc1Nc1nccc(-c2cc(C#N)c3c(c2)[C@@](C)(CO)CN3)n1 (stereo partly shown)', 'recombinant human NF-kappaB-inducing kinase (NIK/MAP3K14) (Homo sapiens, UniProt Q99558)', 'IC50', 3.6),
  ('Cc1cc(F)c(C(=O)NC2CCOC2)cc1Nc1nccc(-c2cc(C#N)c3c(c2)[C@@](C)(CO)CN3)n1 (single isomer, unassigned) [Compound 169]', 'recombinant human NF-kappaB-inducing kinase (NIK/MAP3K14) (Homo sapiens, UniProt Q99558)', 'IC50', 8.7);

(1) CN1CCC(Oc2ccc(C#N)cc2Nc2nccc(-c3cc(C#N)c4c(c3)[C@@](C)(CO)CN4)n2)C(F)C1 (stereo partly shown) [Compound 231]
(2) COCCOc1ccc(C#N)cc1Nc1nccc(-c2cc(C#N)c3c(c2)[C@@](C)(CO)CN3)n1
(3) Cc1cc(CCCN)c(C#N)cc1Nc1nccc(-c2cc(C#N)c3c(c2)[C@@](C)(CO)CN3)n1
// smallest IC50 at index 0, largest at the end Please list each label once, in the requested order.
3, 2, 1

====

VALUE_KIND: melting point (°C)

// worked examples, melting point included
INSERT INTO assay_data (compound, measure_unit, numeric_result) VALUES
  ('CNCc1ccc(C)c(Nc2nccc(-c3cc(C#N)c4c(c3)[C@@](C)(CO)CN4)n2)c1', '°C', 116),
  ('C[C@]1(CO)CNc2c(C#N)cc(-c3ccnc(Nc4cc(C#N)ccc4OCCCN)n3)cc21', '°C', 194),
  ('Cc1ccc(-c2cncn2C)cc1Nc1nccc(-c2cc(C#N)c3c(c2)[C@@](C)(CO)CN3)n1', '°C', 239),
  ('C[C@]1(CO)CNc2c(C#N)cc(-c3ccnc(Nc4cc(C#N)ccc4OCC4CC4)n3)cc21', '°C', 194),
  ('COCCOc1ccc(Cl)cc1Nc1nccc(-c2cc(C#N)c3c(c2)[C@@](C)(CO)CN3)n1', '°C', 169);

(A) CC1(C)CNc2c(C#N)cc(-c3ccnc(Nc4cc(Cl)ccc4OC4CCN(C5CC5)CC4)n3)cc21
(B) Cc1ccc(C(=O)N(C)C)cc1Nc1nccc(-c2cc(C#N)c3c(c2)[C@@](C)(CO)CN3)n1
Of the pair A and B , name the member with the lesser recorded melting point. Give the label of your selection.
A
(A: 120 °C, B: 206 °C)

(1) COc1cc(C(=O)N2CC3(CC(O)C3)C2)c(Cl)cc1Nc1nccc(-c2cc(C#N)c3c(c2)C(C)(C)CN3)n1
(2) CC1(CO)CNc2c(C#N)cc(-c3ccnc(Nc4cc(Cl)ccc4OC4CCN(C5CC5)CC4)n3)cc21 (stereo not drawn)
Which entry has a larger number for melting point, 1 or 2 ? Please respond with the label that marks your chosen entry.
1
